Test system: blackgrass (Alopecurus myosuroides)
Experiment: Test A postemergence, blackgrass
Format: in vivo
Settings: 125 g ai/ha, 0 to 100 scale, 10 days
Description: […]
Reported values of Plant response rating, Blackgrass for individual entries
// response body must contain only the number

# compound, Plant response rating, Blackgrass
measured = [
    ("Cc1cc(C)c(N2CCC(OC3CC3)C2=O)cc1NS(=O)(=O)C(F)(F)F (stereo not drawn)", 70),
    ("Cc1cc(C)c(N(COC(=O)C(C)(C)C)S(=O)(=O)C(F)(F)F)cc1N1CCC(OC2CC2)C1=O (stereo not drawn)", 50),
]

Shift focus to the following entry.
Input line: Could you share what Plant response rating, Blackgrass was measured for C=CCOC1CCN(c2cc(NS(=O)(=O)C(F)(F)F)c(C)cc2C)C1=O (stereo not drawn) , tested on blackgrass (Alopecurus myosuroides)?
Output line: 40
